molecular target: NOD1 H517A (Homo sapiens, UniProt Q9Y239, H517A); construct: made in house; test: MST binding to purified NOD1 H517A-GFP; details: Kd(NOD1 H517A: S1P), Fig 7E
Sequence (Q9Y239 whole entry H517A): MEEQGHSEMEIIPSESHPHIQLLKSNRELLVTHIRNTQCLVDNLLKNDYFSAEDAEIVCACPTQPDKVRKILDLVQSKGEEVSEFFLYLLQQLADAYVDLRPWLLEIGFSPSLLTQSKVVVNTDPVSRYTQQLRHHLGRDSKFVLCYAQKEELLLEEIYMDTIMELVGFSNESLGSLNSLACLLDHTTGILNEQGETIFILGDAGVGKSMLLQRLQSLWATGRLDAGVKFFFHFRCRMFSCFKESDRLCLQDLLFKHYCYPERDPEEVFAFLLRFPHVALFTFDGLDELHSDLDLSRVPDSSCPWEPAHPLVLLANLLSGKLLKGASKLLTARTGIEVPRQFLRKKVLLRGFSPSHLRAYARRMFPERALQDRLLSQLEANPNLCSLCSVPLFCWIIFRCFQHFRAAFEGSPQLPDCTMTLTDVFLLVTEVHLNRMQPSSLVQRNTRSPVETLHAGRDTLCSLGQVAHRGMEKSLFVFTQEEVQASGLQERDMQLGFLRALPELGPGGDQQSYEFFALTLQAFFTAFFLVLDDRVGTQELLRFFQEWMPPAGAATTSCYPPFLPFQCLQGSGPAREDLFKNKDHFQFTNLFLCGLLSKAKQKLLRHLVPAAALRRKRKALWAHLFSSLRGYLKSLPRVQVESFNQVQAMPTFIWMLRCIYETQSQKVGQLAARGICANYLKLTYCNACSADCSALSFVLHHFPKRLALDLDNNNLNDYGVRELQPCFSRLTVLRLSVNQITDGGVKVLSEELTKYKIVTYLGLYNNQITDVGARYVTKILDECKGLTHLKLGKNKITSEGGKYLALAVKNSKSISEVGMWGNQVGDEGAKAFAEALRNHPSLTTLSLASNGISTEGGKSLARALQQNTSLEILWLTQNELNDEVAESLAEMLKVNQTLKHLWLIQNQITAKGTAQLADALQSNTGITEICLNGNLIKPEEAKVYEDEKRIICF
Observable: pKd
FYI, pKd means -log10 of a concentration in mol per litre.

Need pKd, item CCCCCCCCCCCCC/C=C/[C@@H](O)[C@@H](N)COP(=O)(O)O [S1P, sphingosine‐1‐phosphate] 4.86

src = paper PMC8246065
